# Assay Comment: Bioavailability, ex vivo thrombin inhibition assay after i.v. and p.o. dosing
# Type: in vivo
# Measurement Conditions: rat, plasma, po, male rats
Measured Metric: bioavailability (%)
Numbers only, in %.

Query: // query bioavailability value for entry CN[C@H](Cc1ccccc1)C(=O)N1CCC[C@H]1C(=O)N[C@@H](CCCNC(=N)N)C(=O)c1nc2ccccc2s1 [Compound 1]
Response: 1.2

###

# Target Entity: Human Skin Chymase (Homo sapiens, UniProt P23946)
# Sequence (P23946 22-247): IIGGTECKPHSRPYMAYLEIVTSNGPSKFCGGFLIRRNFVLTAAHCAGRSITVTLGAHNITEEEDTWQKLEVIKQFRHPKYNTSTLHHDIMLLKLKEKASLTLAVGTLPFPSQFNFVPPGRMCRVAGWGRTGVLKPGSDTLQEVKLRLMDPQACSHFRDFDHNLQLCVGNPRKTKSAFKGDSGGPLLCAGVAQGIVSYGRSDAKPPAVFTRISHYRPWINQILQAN
Measured Metric: IC50 (nM)
One number for each entry, in nM.

Query: // query IC50 value for entry CN[C@H](Cc1ccccc1)C(=O)N1CCC[C@H]1C(=O)N[C@@H](Cc1ccccc1)C(=O)c1nc2ccccc2s1 [Compound 38]
Response: 2700

###

# Assay Comment: in vivo
# Parameters: species or system male rats (Long Evans)
# Measurement Conditions: rat, iv
Measured Metric: half-life (min)
Answers are plain numbers, in min.

>>> test_result("CN[C@H](Cc1ccccc1)C(=O)N1CCC[C@H]1C(=O)N[C@@H](CCCNC(=N)N)C(=O)c1nc2ccc(F)cc2s1 [Compound 17]")
8
>>> test_result("CN[C@H](Cc1c(F)c(F)c(F)c(F)c1F)C(=O)N1CCC[C@H]1C(=O)N[C@@H](CCCNC(=N)N)C(=O)c1nc2ccccc2s1 [Compound 30]")
6
>>> test_result("CN[C@H](Cc1ccccc1)C(=O)N1CCC[C@H]1C(=O)N[C@@H](CCCNC(=N)N)C(=O)c1nc2ccc(C(=O)OC)cc2s1 [Compound 12]")
43
>>> test_result("CN[C@H](Cc1ccccc1)C(=O)N1CCC[C@H]1C(=O)N[C@@H](CCCNC(=N)N)C(=O)c1nc2ccccc2[nH]1 [Compound 35]")
11
>>> test_result("CN[C@H](Cc1ccccc1)C(=O)N1CCC[C@H]1C(=O)N[C@@H](CCCNC(=N)N)C(=O)c1nccs1 [Compound 4]")
16

Query: // query half-life value for entry CN[C@H](Cc1ccccc1)C(=O)N1CCC[C@H]1C(=O)N[C@@H](CCCNC(=N)N)C(=O)c1nc2ccccc2s1 [Compound 1]
Response: 19

###

Hi there, I'd appreciate the recorded IC50 for every entry that follows.
# Target Entity: human Lung Tryptase
# Assay Comment: Tryptase IC50 Method
# Measurement Conditions: 37° C., 1.0 nM enzyme, 500 μM substrate
Numbers only, in nM.

Answered cases to consult:
>>> test_result("CN[C@H](Cc1ccccc1)C(=O)N1CCC[C@H]1C(=O)N[C@@H](CCCNC(=N)N)C(=O)c1nc2ccccc2s1 [Compound 1]")
7.5
>>> test_result("CN[C@H](Cc1ccccc1)C(=O)N1CCC[C@H]1C(=O)N[C@@H](CCCNC(=N)N)C(=O)c1nc2ccccc2[nH]1 [Compound 35]")
15.1

Could you now look at the following compound, please?
Query: // query IC50 value for entry CN[C@H](Cc1ccccc1)C(=O)N1CCC[C@H]1C(=O)N[C@@H](CCCNC(=N)N)C(=O)c1nc2ccc(F)cc2s1 [Compound 17]
Response: 11.1
